Where do these numbers come from? They come from patent US20140358576A1.

EXPERIMENTAL_SETUP: human
PARAMETER: Adverse Event Seriousness

COMPOUND	PARAMETER	OBS_VALUE
CCN(CC)CCNC(=O)c1cc(Cl)c(N)cc1OC [metoclopramide]	Adverse Event Seriousness	4.46
CS(=O)(=O)OCCCCOS(C)(=O)=O	Adverse Event Seriousness	14.67
CN1CC[C@]23c4c5ccc(O)c4O[C@H]2C(=O)CC[C@@]3(O)[C@H]1C5	Adverse Event Seriousness	6.21
COc1ccc2c3c1O[C@H]1C(=O)CC[C@@]4(O)[C@@H](C2)N(C)CC[C@]314	Adverse Event Seriousness	14.17
Nc1nc(F)nc2c1ncn2[C@@H]1O[C@H](CO)[C@@H](O)[C@@H]1O	Adverse Event Seriousness	12.69
C=CC[C@@H]1/C=C(\C)C[C@H](C)C[C@H](OC)[C@H]2O[C@@](O)(C(=O)C(=O)N3CCCC[C@H]3C(=O)O[C@H](/C(C)=C/[C@@H]3CC[C@@H](O)[C@H](OC)C3)[C@H](C)[C@@H](O)CC1=O)[C@H](C)C[C@@H]2OC	Adverse Event Seriousness	14.77

----------
EXPERIMENTAL_SETUP: human
Recorded ROR, one value per entry.

MOLECULE	ROR
CCC(=O)C(CC(C)N(C)C)(c1ccccc1)c1ccccc1 (stereo not drawn)	4.85
CN1CC[C@]23c4c5ccc(O)c4O[C@H]2C(=O)CC[C@@]3(O)[C@H]1C5	3.98
CCN(CC)CCNC(=O)c1cc(Cl)c(N)cc1OC [metoclopramide]	12.97
COc1ccccc1Oc1c(NS(=O)(=O)c2ccc(C(C)(C)C)cc2)nc(-c2ncccn2)nc1OCCO	3.81
CN(CCOc1ccc(CC2SC(=O)NC2=O)cc1)c1ccccn1 (stereo not drawn)	5.53
Nc1nc(F)nc2c1ncn2[C@@H]1O[C@H](CO)[C@@H](O)[C@@H]1O	4.60
COc1ccc2c3c1O[C@H]1C(=O)CC[C@@]4(O)[C@@H](C2)N(C)CC[C@]314	5.51
C=CC[C@@H]1/C=C(\C)C[C@H](C)C[C@H](OC)[C@H]2O[C@@](O)(C(=O)C(=O)N3CCCC[C@H]3C(=O)O[C@H](/C(C)=C/[C@@H]3CC[C@@H](O)[C@H](OC)C3)[C@H](C)[C@@H](O)CC1=O)[C@H](C)C[C@@H]2OC	4.09
CS(=O)(=O)OCCCCOS(C)(=O)=O	7.15

----------
EXPERIMENTAL_SETUP: human

COMPOUND	RxScore
COc1ccc2c3c1O[C@H]1C(=O)CC[C@@]4(O)[C@@H](C2)N(C)CC[C@]314	100.00
C=CC[C@@H]1/C=C(\C)C[C@H](C)C[C@H](OC)[C@H]2O[C@@](O)(C(=O)C(=O)N3CCCC[C@H]3C(=O)O[C@H](/C(C)=C/[C@@H]3CC[C@@H](O)[C@H](OC)C3)[C@H](C)[C@@H](O)CC1=O)[C@H](C)C[C@@H]2OC	78.26
CN(CCOc1ccc(CC2SC(=O)NC2=O)cc1)c1ccccn1 (stereo not shown)	79.48
CS(=O)(=O)OCCCCOS(C)(=O)=O	86.04

----------
EXPERIMENTAL_SETUP: human
Recorded measurements of RxScore, one per entry
PARAMETER: RxScore

>>> print(df.to_string())
                                   compound  parameter  obs_value
0  CN1CC[C@]23c4c5ccc(O)c4O[C@H]2C(=O)CC[C@@]3(O)[C@H]1C5 [oxymorphone]    RxScore      77.03
1  CCN(CC)CCNC(=O)c1cc(Cl)c(N)cc1OC [metoclopramide]    RxScore      78.08
2  Nc1nc(F)nc2c1ncn2[C@@H]1O[C@H](CO)[C@@H](O)[C@@H]1O [fludarabine]    RxScore      78.34
3  COc1ccccc1Oc1c(NS(=O)(=O)c2ccc(C(C)(C)C)cc2)nc(-c2ncccn2)nc1OCCO [bosentan]    RxScore      81.44

----------
EXPERIMENTAL_SETUP: human
Counter-ions that a name gives are not always drawn.
Please respond with Met when measured ROR is strictly beneath 9, and with Not met in all other cases.

COMPOUND	ASSIGNED_LABEL
CN(C)CCC=C1c2ccccc2C=Cc2ccccc21 [cyclobenzaprine hydrochloride]	Met
CN1CCC(=C2c3ccccc3CCn3c(C=O)cnc32)CC1	Not met
CN1C(=O)C(O)N=C(c2ccccc2)c2cc(Cl)ccc21 (stereo not drawn)	Met
CC(OC(=O)NCC1(CC(=O)O)CCCCC1)OC(=O)C(C)C (stereo not drawn)	Met
C[C@H]1[C@H](NC(=O)/C(=N\OC(C)(C)C(=O)O)c2csc(N)n2)C(=O)N1S(=O)(=O)O	Met
CC1(C)O[C@@H]2[C@@H](CO[C@@]3(COS(N)(=O)=O)OC(C)(C)O[C@@H]23)O1 [topiramate]	Met
O=C1CN=C(c2ccccc2Cl)c2cc([N+](=O)[O-])ccc2N1	Met
CCC1(C)CC(=O)NC1=O (stereo not drawn) [ethosuximide]	Met
Nc1nnc(-c2cccc(Cl)c2Cl)c(N)n1	Met
NC(=O)OCC(COC(N)=O)c1ccccc1 [felbamate]	Met
CC[C@H]1OC(=O)[C@H](C)[C@@H](O[C@H]2C[C@@](C)(OC)[C@@H](O)[C@H](C)O2)[C@H](C)[C@@H](O[C@@H]2O[C@H](C)C[C@H](N(C)C)[C@H]2O)[C@](C)(O)C[C@@H](C)CN(C)[C@H](C)[C@@H](O)[C@]1(C)O	Not met
CCCCCN(C)CCC(O)(P(=O)(O)O)P(=O)(O)O [ibandronate sodium]	Met
CCC1(c2ccccc2)C(=O)NCNC1=O	Met
CCCC(CCC)C(=O)O [valproic acid]	Met
NS(=O)(=O)Cc1noc2ccccc12 [zonisamide]	Met
C[C@]12CC[C@@H]3c4ccc(O)cc4CC[C@H]3[C@@H]1CC[C@@H]2O	Not met
Cc1nnc2n1-c1ccc(Cl)cc1C(c1ccccc1)=NC2	Met
CCCC(CCC)C(=O)[O-].[Na+] [valproate sodium]	Met
CC(=O)O[C@]1(C(C)=O)CC[C@H]2[C@@H]3C[C@H](C)C4=CC(=O)CC[C@]4(C)[C@H]3CC[C@@]21C [medroxyprogesterone acetate]	Not met
CCCCC[C@H](O)/C=C/[C@H]1[C@H](O)CC(=O)[C@@H]1C/C=C\CCCC(=O)O	Not met
CC(C)(N)Cc1ccccc1	Not met
COC(=O)C(c1ccccc1)C1CCCCN1 (stereo not drawn) [methylphenidate]	Not met
O=C1NC(=O)C(c2ccccc2)(c2ccccc2)N1 [phenytoin sodium]	Met
C=CC(N)CCC(=O)O (stereo not drawn)	Met
CN[C@@H](C)Cc1ccccc1 [methamphetamine hydrochloride]	Not met
NCCC(O)(P(=O)(O)O)P(=O)(O)O [pamidronate disodium]	Not met
CCCC(CCC)C(=O)O [divalproex sodium]	Met
CCCCCC(=O)O[C@]1(C(C)=O)CC[C@H]2[C@@H]3CCC4=CC(=O)CC[C@]4(C)[C@H]3CC[C@@]21C [hydroxyprogesterone caproate]	Not met
Cc1ccsc1C(=CCCN1CCC[C@@H](C(=O)O)C1)c1sccc1C [tiagabine hydrochloride]	Met
O=P(O)(O)C(O)(Cn1ccnc1)P(=O)(O)O [zoledronic acid (Zometa), zoledronic acid]	Not met
CNC[C@H](O)c1ccc(O)c(O)c1 [epinephrine injection, epinephrine]	Not met
NCC1(CC(=O)O)CCCCC1	Met
C=C[C@]1(C)C[C@@H](OC(=O)CS[C@@H]2C[C@H]3CC[C@@H](C2)N3C)[C@]2(C)[C@H](C)CC[C@]3(CCC(=O)[C@H]32)[C@@H](C)[C@@H]1O	Not met
N#Cc1ccccc1-c1cc(-c2ccccn2)cn(-c2ccccc2)c1=O	Met
O=C1CCCC(=O)C1C(=O)c1ccc(C(F)(F)F)cc1[N+](=O)[O-]	Met

----------
EXPERIMENTAL_SETUP: human
Structures can show the parent of a compound that is named as a salt.
PARAMETER: RxScore

>>> df
                                   compound  parameter  obs_value
0  Cc1ccsc1C(=CCCN1CCC[C@@H](C(=O)O)C1)c1sccc1C [tiagabine hydrochloride]    RxScore      48.70
1  CCCC(CCC)C(=O)[O-].[Na+] [valproate sodium]    RxScore      48.83
2  C=CC(N)CCC(=O)O (stereo not shown) [vigabatrin]    RxScore      51.42
3     NS(=O)(=O)Cc1noc2ccccc12 [zonisamide]    RxScore      49.83

----------
EXPERIMENTAL_SETUP: human
Counter-ions that a name gives are not always drawn.
PARAMETER: Adverse Event Seriousness

In [3]: df
Out[3]:
                                   compound  obs_value
0  NCCC(O)(P(=O)(O)O)P(=O)(O)O [pamidronate disodium]      12.75
1  Cc1ccsc1C(=CCCN1CCC[C@@H](C(=O)O)C1)c1sccc1C [tiagabine hydrochloride]      10.82
2  CCCC(C)(COC(N)=O)COC(=O)NC(C)C (stereo not shown)      17.03
3  O=C1CN=C(c2ccccc2Cl)c2cc([N+](=O)[O-])ccc2N1      11.38
